Ref: patent US9505781B2

Consider the following compounds and their measured IC50 readings.
target.or.system: menin-MLL interaction (Homo sapiens, UniProt O00255)
Sequence (O00255 whole entry): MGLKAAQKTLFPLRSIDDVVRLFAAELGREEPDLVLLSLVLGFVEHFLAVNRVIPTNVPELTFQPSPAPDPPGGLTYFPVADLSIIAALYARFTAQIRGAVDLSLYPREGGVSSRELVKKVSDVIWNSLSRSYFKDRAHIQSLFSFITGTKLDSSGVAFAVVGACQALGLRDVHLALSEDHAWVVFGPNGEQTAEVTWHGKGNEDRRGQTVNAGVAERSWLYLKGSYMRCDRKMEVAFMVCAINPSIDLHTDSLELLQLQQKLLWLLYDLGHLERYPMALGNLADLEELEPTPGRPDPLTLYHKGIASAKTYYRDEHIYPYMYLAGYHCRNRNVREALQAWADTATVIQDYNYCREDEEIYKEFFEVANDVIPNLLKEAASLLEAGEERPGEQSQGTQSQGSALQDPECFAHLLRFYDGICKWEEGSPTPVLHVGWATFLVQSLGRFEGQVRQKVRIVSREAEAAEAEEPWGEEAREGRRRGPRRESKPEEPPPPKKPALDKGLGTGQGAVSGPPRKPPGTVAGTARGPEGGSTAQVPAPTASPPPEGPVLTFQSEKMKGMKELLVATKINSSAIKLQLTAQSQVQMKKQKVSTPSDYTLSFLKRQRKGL
test.details: biochemical

Some compounds with recorded IC50:
>>> result("CCCCC(O)(CO)Cn1c(C#N)cc2c(C)c(CN3CCC(Nc4ncnc5sc(CC(F)(F)F)cc45)CC3)ccc21 (stereo not shown)")
"< 100 nM"
>>> result("N#Cc1cc2cc(CN3CCC(Nc4ncnc5sc(CC(F)(F)F)cc45)CC3)ccc2n1Cc1cc[nH]n1")
"< 100 nM"
>>> result("FC(F)(F)Cc1cc2c(N3CCN(CC4CCCCC4)CC3)ncnc2s1")
"100 to 500 nM"

Asked: Item under review: FC(c1cc2c(N3CCN(c4nnc(C(F)(F)F)s4)CC3)ncnc2s1)C(F)(F)F (stereo not shown) . Reported IC50?
Given back: 500 to 2000 nM

* * *

target.or.system: menin-MLL interaction (Homo sapiens, UniProt O00255)
test.details: biochemical
pIC50: −log10 of the molar value.
value.kind: pIC50

Some compounds with recorded pIC50:
>>> result("Nc1ccc(CN2CCC(Nc3ncnc4sc(CC(F)(F)F)cc34)CC2)cc1 [Compound 139]")
"5.70 to 6.30"
>>> result("FC(F)(F)Cc1cc2c(N3CCN(c4nnc(CC5CCCCC5)s4)CC3)ncnc2s1 [Compound 39]")
"5.70 to 6.30"
>>> result("O=C(C1CCCCC1)N1CCN(c2ncnc3sc(CC(F)(F)F)cc23)CC1 [Compound 87]")
"5.70 to 6.30"
>>> result("COc1cc2c(cc(C#N)n2CC(N)=O)c(C)c1CN1CCC(Nc2ncnc3sc(CC(F)(F)F)cc23)CC1 [Compound 385]")
"> 7.00"
>>> result("Cc1c(CN2CC[C@@H](Nc3ncnc4sc(CC(F)(F)F)cc34)[C@H](NCCc3ccccc3)C2)ccc2c1cc(C#N)n2CC(N)=O [Compound 288]")
"> 7.00"

Asked: Item under review: N#Cc1cc2cc(CN3CCC(Nc4ncnc5sc(CC(F)(F)F)cc45)C(NC[C@H]4CCCN4C=O)C3)ccc2[nH]1 (stereo partly drawn) [Compound 161] . Reported pIC50?
Given back: > 7.00

Asked: Item under review: Oc1ccc(CN2CCC(Nc3ncnc4sc(CC(F)(F)F)cc34)CC2)cc1 [Compound 105] . Reported pIC50?
Given back: > 7.00

Asked: Item under review: NS(=O)(=O)Cc1ccc(CC(=O)N2C[C@@H]3CC[C@H]2CN3c2ncnc3sc(CC(F)(F)F)cc23)cc1 [Compound 97] . Reported pIC50?
Given back: 5.70 to 6.30

Asked: Item under review: NS(=O)(=O)Cc1ccc(CC(=O)N2CCN(C3=NC=NC4SC(CC(F)(F)F)=CC34)CC2)c(Cl)c1 (stereo not drawn) [Compound 286] . Reported pIC50?
Given back: > 7.00

Asked: Item under review: Cc1c(CN2CCC(Nc3ncnc4sc(CCF)cc34)CC2)ccc2[nH]c(C#N)cc12 [Compound 423] . Reported pIC50?
Given back: > 7.00

* * *

target.or.system: menin-MLL interaction (Homo sapiens, UniProt O00255)
test.details: biochemical
value.kind: IC50

Some compounds with recorded IC50:
>>> result("N#Cc1cc2cc(CN3CCC(Nc4ncnc5sc(CC(F)(F)F)cc45)CC3)ccc2n1CCn1ccnn1")
"< 100 nM"
>>> result("Cc1c(CC(F)(F)F)sc2ncnc(NC3CCN(Cc4ccccc4)CC3)c12")
"100 to 500 nM"
>>> result("Cc1ccc(CN2CCC(CNc3ncnc4sc(CC(F)(F)F)cc34)CC2)cc1")
"500 to 2000 nM"

Asked: Item under review: "Cc1c(CN2CCC(Nc3ncnc4sc(CC(F)(F)F)cc34)CC2)ccc2c1cc(C#N)n2CCN1CCN(C(=O)CCC2CC2)CC1" . Reported IC50?
Given back: < 100 nM

Asked: Item under review: "Cc1c(CN2CCC(Nc3ncnc4sc(CC(F)(F)F)cc34)CC2)ccc2c1cc(C#N)n2CCN1CCN(C(=O)CCC(F)(F)F)CC1" . Reported IC50?
Given back: < 100 nM

Asked: Item under review: "Cc1c(CN2CCC(Nc3ncnc4sc(CC(F)(F)F)cc34)CC2)ccc2c1cc(C#N)n2CCN1CCN(C(=O)CCC2CCCCC2)CC1" . Reported IC50?
Given back: < 100 nM

Asked: Item under review: O=C(Cc1ccc(NS(=O)(=O)N2CCCCC2)cc1Cl)N1CCN(C2=NC=NC3SC(CC(F)(F)F)=CC23)CC1 (stereo not shown) . Reported IC50?
Given back: < 100 nM
